Data credit: PubChem BioAssay AID330

System: P388 leukemia ip, CD2F1 mice, survival T/C
Experimental Details: NCI In Vivo Anticancer Drug Screen. Data for tumor model P388 Leukemia (intraperitoneal) in CD2F1 (CDF1) mice
Test Context: endpoint: median survival time; dose: 200.0 mg/kg/injection; schedule: Q01DX009 (ip); vehicle: saline with Tween-80
Inconclusive results and toxic doses are left out. Rule for the calls: active = survival T/C of 150% or more; inactive = T/C below 125% in these data.
Just give me one of these, please: active, inactive

Qu. Name the outcome recorded for `Cc1ccc(S(=O)(=O)O/N=C(/C#N)c2ccccc2)cc1` in the assay.
Ans. inactive

Qu. Name the outcome recorded for `COc1ccc(Br)cc1` in the assay.
Ans. inactive

Qu. Name the outcome recorded for `CCCCCCC(=O)/C=C/c1ccc(OC(=O)c2ccc(C)cc2)cc1` in the assay.
Ans. inactive

Qu. Name the outcome recorded for C#CC(C)(O)C(O)c1ccccc1 (centres undefined) in the assay.
Ans. inactive

Qu. Name the outcome recorded for `O=C(CCCCC(=O)N/N=C\c1ccccn1)N/N=C\c1ccccn1` in the assay.
Ans. inactive

Qu. Name the outcome recorded for `Oc1ccc(N=Cc2ccc(OCc3ccccc3)cc2)cc1` in the assay.
Ans. inactive

Qu. Name the outcome recorded for `O=C(O)c1cccc2cccc(-c3c4ccc(=O)c(O)c-4oc4c(O)c(O)ccc34)c12` in the assay.
Ans. inactive

Qu. Name the outcome recorded for CCC1OCC(C(Cl)CCl)O1 (centres undefined) in the assay.
Ans. inactive

Qu. Name the outcome recorded for `CCCCP(=O)(CCCC)CCCC.CCCCP(=O)(CCCC)CCCC.CCCCP(=O)(CCCC)CCCC.CCCCP(=O)(CCCC)CCCC.[Ce+3].[O-][Cl+3]([O-])([O-])O` in the assay.
Ans. inactive

Qu. Name the outcome recorded for `Cc1ccc(NC(=O)Oc2ccc(C(C)(C)C)cc2Br)c([N+](=O)[O-])c1` in the assay.
Ans. inactive

Qu. Name the outcome recorded for `CCOC(=O)c1ccc(NC(=O)Nc2nccs2)cc1` in the assay.
Ans. active

Qu. Name the outcome recorded for `CCc1ncc(CO)n1Cc1cccc2ccccc12` in the assay.
Ans. inactive

Qu. Name the outcome recorded for NC1C2CC3CC(C2)CC1(N)C3 (centres undefined) in the assay.
Ans. inactive

Qu. Name the outcome recorded for `CN(CCCl)C(=O)c1ccc([N+](=O)[O-])cc1` in the assay.
Ans. inactive

Qu. Name the outcome recorded for `CN(C)c1nc(=[N+](C)C)ss1` in the assay.
Ans. inactive

Qu. Name the outcome recorded for `CCN(c1ccccc1)c1nsc(Cl)n1` in the assay.
Ans. inactive

Qu. Name the outcome recorded for `CCC/C(=N\O)C(O)(CCC)CCC` in the assay.
Ans. inactive

Qu. Name the outcome recorded for COC(=O)C1CCC2c3ccccc3C(C1)c1ccccc12 (centres undefined) in the assay.
Ans. inactive

Qu. Name the outcome recorded for NC(Cc1cc(I)c(O)c(I)c1)C(=O)O (centres undefined) in the assay.
Ans. inactive

Qu. Name the outcome recorded for `Cc1cc(C)c(O)c(C(c2ccccc2)c2cc(C)cc(C)c2O)c1` in the assay.
Ans. inactive

Qu. Name the outcome recorded for `O=C(Nc1cccc(Cl)c1)Sc1c(Cl)c(Cl)c(Cl)c(Cl)c1Cl` in the assay.
Ans. inactive

Qu. Name the outcome recorded for `O=C(NC1CCCCC1)NS(=O)(=O)c1ccc(CCNC(=O)c2cccc3c2OCC3)cc1` in the assay.
Ans. inactive

Qu. Name the outcome recorded for `COc1ccccc1N=C1SCC(=O)N1Cc1ccco1` in the assay.
Ans. inactive

Qu. Name the outcome recorded for `CN(C)c1ccc2c3c(c(=O)oc2c1)CCC3` in the assay.
Ans. inactive
